- tested_on: PRKD1 (human)
- experimental_protocol: radiometric filter-binding kinase assay, Kinase HotSpot
- stated_conditions: compound 0.5 µM; ATP 10 µM
reported_endpoint: residual activity (%)
Please reply with the bare figure in % and do not write the unit itself.

molecule Ic1cccc(CSc2nnc(-c3ccncc3)o2)c1 , residual activity observed: 97.6

COc1ccc(C(=O)Nc2sc3c(c2C(N)=O)CCCC3)cc1OC has a reported residual activity of 99.6

So for CC(C)(C)c1cc(C=C(C#N)C#N)cc(Br)c1O , the logged residual activity turned out to be 100

For reference, reported residual activity for Fc1ccc(-c2nc3n(c2-c2ccncc2)CCS3)cc1 stands at 90.2

Given item COc1ccc(S(=O)(=O)N(CCO)c2ccccc2CN(C)C/C=C/c2ccc(Cl)cc2)cc1 , the value recorded as its residual activity is 100

Looking up O=C1NC(=O)c2c1c1c3ccccc3[nH]c1n1cncc21 , I found its residual activity recorded as 61.4

// N#Cc1c[nH]c2c[nH]/c(=N\Cc3cccnc3)cc2/c1=N\c1ccc(F)c(Cl)c1 : residual activity value = 94.5

Form: molecule = CCCCc1c(-c2ccc(OC)cc2)[nH]c2nccnc12 ; residual activity = 92.9

The recorded residual activity for entry C[C@@H]1CCN(C(=O)CC#N)C[C@@H]1N(C)c1ncnc2[nH]ccc12 equals 97.3

Cn1c2ccccc2c2c3c(c4c5ccccc5n(CCC#N)c4c21)CNC3=O yielded residual activity of 17.3

Reported residual activity ( CN(C)CCCn1cc(C2=C(c3c[nH]c4ccccc34)C(=O)NC2=O)c2ccccc21 ) = 71.6

Entry O=C1Nc2ccc(Br)cc2/C1=C\c1cc2c([nH]1)CCCC2 ; residual activity = 93.8

molecule O=C1C(Cl)=C(N2C(=O)CCC2=O)C(=O)c2ccccc21 , residual activity observed: 104

response.value for COc1cc2ncnc(Nc3ccc(Oc4ccccc4)cc3)c2cc1OC (field: residual activity) = 95.6

Form: molecule = O=C(c1cc2cc(O)ccc2[nH]1)c1cc2cc(O)ccc2[nH]1 ; residual activity = 58.5

Sample CN(C)S(=O)(=O)c1ccc2c(c1)/C(=C/c1cc3c([nH]1)CCCC3)C(=O)N2 ; residual activity observed: 102

# molecule COc1cc(Nc2c(C#N)cnc3cc(OCCCN4CCN(C)CC4)c(OC)cc23)c(Cl)cc1Cl ; its residual activity = 43.7

Record Cc1cncc2cccc(S(=O)(=O)N3CCCN(C(=O)CN)C[C@H]3C)c12 , field residual activity: 96.7

Given item Cc1cccc(-c2nc(C(C)(C)C)[nH]c2-c2ccc3c(c2)OCO3)n1 , the value recorded as its residual activity is 92.3

Value of measured residual activity for the entry CS(=O)(=O)CCNCc1ccc(-c2ccc3ncnc(Nc4ccc(OCc5cccc(F)c5)c(Cl)c4)c3c2)o1 : 99.4

residual activity in this record for Cc1nc(-c2ccccc2)c(-c2ccncc2)o1 : 95.6

Reported residual activity of COc1ccc(Cl)cc1NC(=O)Nc1cc(C)nc2ccccc12 : 96.6

----------
- tested_on: KIT (human)
- experimental_protocol: radiometric filter-binding kinase assay, Kinase HotSpot
- stated_conditions: compound 0.5 µM; ATP 10 µM
Exercise: for every item that follows, state its recorded residual activity.
Remember to follow the number with its unit.

The observed residual activity for CS(=O)(=O)CCNCc1ccc(-c2ccc3ncnc(Nc4ccc(OCc5cccc(F)c5)c(Cl)c4)c3c2)o1 when tested with KIT (human) stands at 98.4%

N#C/C(=C\c1ccc(O)c(O)c1)C(=O)NCc1ccccc1 on KIT (human) gives residual activity = 93.9%

Item Cc1cncc2cccc(S(=O)(=O)N3CCCN(C(=O)CN)C[C@H]3C)c12 ; assay system KIT (human); residual activity reported as 92.9%

residual activity value, target or system KIT (human), for COc1ccc(Cl)cc1NC(=O)Nc1cc(C)nc2ccccc12 : 102%

Let me check: Fc1ccc(-c2nc3n(c2-c2ccncc2)CCS3)cc1 , system KIT (human), measured residual activity is 92.8%

Query Cc1nc(-c2ccccc2)c(-c2ccncc2)o1 on KIT (human); residual activity returned: 93.7%

residual activity of COc1ccc2c(c1)/C(=C/c1cnc[nH]1)C(O)=N2 , assay on KIT (human), is 84.1%

For the compound COc1ccc2c(c1)c(C1=C(c3c[nH]c4ccccc34)C(=O)NC1=O)cn2CCCN(C)C , the measured residual activity on KIT (human) was 88.8%

Fill in: KIT (human) residual activity for COc1cc2ncnc(Nc3ccc(OCc4ccccc4)cc3)c2cc1OC = 63%

I looked up O=C1NC(=O)c2c1c1c3ccccc3[nH]c1n1cncc21 and its residual activity for KIT (human) was 38%

The value of residual activity recorded for c1ccc2c(-c3ccncc3)c[nH]c2c1 when tested on KIT (human) reads 93.2%
